# Test Method Notes: Blood clearance in rat at 0.5 mg/kg, iv and 1 mg/kg, po
# Format: ADME, organism-based
# Reported Conditions: whole blood
Quantity Measured: clearance (mL/min/kg)

A selection of reference data follows.
Chemical Structure	clearance (mL/min/kg)
Cc1ccc2c(N3CCN(CCc4cccc5c4ccc(=O)n5C)[C@@H](C)C3)cc(F)cc2n1	34
Cc1ccc2c(N3CCN(CCc4c(C)ccc5c4CCC(=O)N5)CC3)cccc2n1	7
Cc1ccc2c(N3CCN(CCc4c(C)ccc5c4ccc(=O)n5C)[C@@H](C)C3)cccc2n1	46

a = Cc1ccc2c(N3CCN(CCc4c(C)ccc5c4CCC(=O)N5C)CC3)cccc2n1
b = Cc1ccc2c(N3CCN(CCc4c(C)ccc5c4ccc(=O)n5C)CC3)cc(F)cc2n1
Given the listed items, does a or b have the lesser reported clearance? Write the label of whichever entry you select.
a
(a: 9 mL/min/kg, b: 46 mL/min/kg)

====

# Test Method Notes: Blood clearance in rat at 0.5 mg/kg, iv and 1 mg/kg, po
# Type: ADME, organism-based
# Reported Conditions: whole blood
Quantity Measured: clearance (mL/min/kg)

Example entries and their recorded answers appear below.
Chemical Structure	Quantity Measured	U	Reported Result
Cc1ccc2c(N3CCN(CCc4cccc5c4ccc(=O)n5C)CC3)cccc2n1	clearance	mL/min/kg	32
Cc1ccc2c(N3CCN(CCc4c(C)ccc5c4ccc(=O)n5C)CC3)cccc2n1	clearance	mL/min/kg	28
Cc1ccc2c(N3CCN(CCc4cccc5c4ccc(=O)n5C)C(C)(C)C3)cccc2n1	clearance	mL/min/kg	34
Cc1ccc2c(N3CCN(CCc4cccc5c4ccc(=O)n5C)[C@@H](C)C3)cccc2n1	clearance	mL/min/kg	32

P = Cc1ccc2c(C3CCN(CCc4c(C)ccc5c4ccc(=O)n5C)CC3)cccc2n1
Q = Cc1ccc2c(N3CCN(CCc4c(C)ccc5c4ccc(=O)n5C)[C@H](C)C3)cccc2n1
Field: lower recorded clearance (choose P or Q ) # answer = label of selected item
Q

====

# Target Or Test System: Voltage-gated inwardly rectifying potassium channel KCNH2 (Homo sapiens, UniProt Q12809)
# Sequence (Q12809 whole entry): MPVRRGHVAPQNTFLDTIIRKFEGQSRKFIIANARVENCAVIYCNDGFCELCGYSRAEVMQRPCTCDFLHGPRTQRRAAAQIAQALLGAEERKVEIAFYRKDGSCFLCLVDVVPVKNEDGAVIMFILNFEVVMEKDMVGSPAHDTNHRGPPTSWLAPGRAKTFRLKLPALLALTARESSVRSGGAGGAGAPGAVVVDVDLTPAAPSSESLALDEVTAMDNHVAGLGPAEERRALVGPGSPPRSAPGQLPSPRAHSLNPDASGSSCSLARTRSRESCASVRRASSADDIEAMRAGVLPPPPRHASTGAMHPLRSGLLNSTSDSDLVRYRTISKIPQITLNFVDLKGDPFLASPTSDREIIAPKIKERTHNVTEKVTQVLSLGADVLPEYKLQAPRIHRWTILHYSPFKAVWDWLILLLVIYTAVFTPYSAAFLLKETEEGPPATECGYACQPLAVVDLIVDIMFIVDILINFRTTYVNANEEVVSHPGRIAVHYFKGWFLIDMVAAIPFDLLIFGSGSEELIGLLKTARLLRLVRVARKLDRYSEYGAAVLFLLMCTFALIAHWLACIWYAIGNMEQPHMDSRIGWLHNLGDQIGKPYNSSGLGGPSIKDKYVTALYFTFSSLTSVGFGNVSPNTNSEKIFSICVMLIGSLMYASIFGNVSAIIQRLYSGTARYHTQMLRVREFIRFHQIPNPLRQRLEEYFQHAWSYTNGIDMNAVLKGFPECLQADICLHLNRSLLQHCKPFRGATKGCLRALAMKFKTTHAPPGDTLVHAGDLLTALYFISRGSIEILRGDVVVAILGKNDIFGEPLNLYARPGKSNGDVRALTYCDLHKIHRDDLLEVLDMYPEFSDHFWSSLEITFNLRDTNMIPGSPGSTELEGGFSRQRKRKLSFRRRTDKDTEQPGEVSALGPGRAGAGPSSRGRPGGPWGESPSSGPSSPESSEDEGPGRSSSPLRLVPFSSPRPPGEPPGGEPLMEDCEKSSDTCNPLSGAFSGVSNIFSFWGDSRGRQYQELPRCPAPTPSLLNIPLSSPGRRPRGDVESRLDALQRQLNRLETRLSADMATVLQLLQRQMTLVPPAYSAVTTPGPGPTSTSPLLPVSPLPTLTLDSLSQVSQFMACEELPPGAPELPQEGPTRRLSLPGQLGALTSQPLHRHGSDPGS
# Test Method Notes: Displacement of [3H]-dofetilide in human hERG expressed in CHO cells by proximity assay
Quantity Measured: pKi
Reminder that pKi means the negative base-10 logarithm of the concentration expressed in mol/L.

Answered examples (4):
Chemical Structure	pKi
Cc1ccc2c(N3CCN(CCc4cccc5c4ccc(=O)n5C)[C@H](C)C3)cc(F)cc2n1	5.00
Cc1ccc2c(N3CCN(CCc4cccc5c4ccc(=O)n5C)CC3)cccc2n1	5.00
Cc1ccc2c(N3CCN(CCc4cccc5c4ccc(=O)n5C)[C@@H](C)C3)cc(F)cc2n1	5.20
Cc1ccc2c(N3CCN(CCc4c(C)ccc5c4ccc(=O)n5C)CC3)cccc2n1	5.40

For this compound ( `Cc1ccc2c(N3CCN(CCc4c(C)ccc5c4ccc(=O)n5C)[C@@H](C)C3)cccc2n1` ), measured pKi is 5.80

====

# Target Or Test System: UniProtKB P31645
# Sequence (P31645 whole entry): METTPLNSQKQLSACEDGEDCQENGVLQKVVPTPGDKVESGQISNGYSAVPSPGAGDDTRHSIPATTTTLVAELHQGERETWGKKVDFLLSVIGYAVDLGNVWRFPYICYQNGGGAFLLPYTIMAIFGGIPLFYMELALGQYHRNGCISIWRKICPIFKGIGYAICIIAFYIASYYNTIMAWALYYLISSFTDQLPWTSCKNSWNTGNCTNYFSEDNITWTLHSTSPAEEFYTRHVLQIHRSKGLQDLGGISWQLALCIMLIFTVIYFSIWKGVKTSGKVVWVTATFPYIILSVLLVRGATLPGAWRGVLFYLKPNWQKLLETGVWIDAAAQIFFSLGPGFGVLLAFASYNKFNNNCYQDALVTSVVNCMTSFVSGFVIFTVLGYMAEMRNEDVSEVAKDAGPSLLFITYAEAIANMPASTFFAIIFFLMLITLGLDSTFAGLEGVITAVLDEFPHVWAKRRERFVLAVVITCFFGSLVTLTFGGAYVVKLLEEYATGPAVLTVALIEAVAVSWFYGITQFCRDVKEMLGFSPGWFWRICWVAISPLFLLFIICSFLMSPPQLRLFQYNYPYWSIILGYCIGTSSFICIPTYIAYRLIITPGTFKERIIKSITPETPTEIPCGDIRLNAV
# Test Method Notes: Displacement of [3H]-citalopram in human SERT expressed in LLCPK cells by filtration assay
# Format: cell-based
Quantity Measured: Ki (nM)

Chemical Structure	Ki [nM]
Cc1ccc2c(N3CCN(CCc4cccc5c4ccc(=O)n5C)CC3)cccc2n1	2.51

A = Cc1ccc2c(N3CCN(CCc4c(C)ccc5[nH]c(=O)ccc45)CC3)cccc2n1
B = Cc1ccc2c(N3CCN(CCc4c(C)ccc5c4ccc(=O)n5C)CC3)cc(F)cc2n1
From the recorded data, which exceeds the other in Ki: A or B ? Pick one and reply with its label.
A

A = Cc1ccc2c(N3CCN(CCc4c(Cl)ccc5c4ccc(=O)n5C)CC3)cccc2n1
B = Cc1ccc2c(N3CCN(CCc4c(C)ccc5c4CCC(=O)N5C)CC3)cccc2n1
In terms of reported Ki, does A or B have the smaller number? Give the label of your selection.
A
(A: 15.8 nM, B: 25.1 nM)

1 = Cc1ccc2c(C3CCN(CCc4c(C)ccc5c4ccc(=O)n5C)CC3)cccc2n1
2 = Cc1ccc2c(N3CCN(CCc4c(C)ccc5c4ccc(=O)n5C)[C@H](C)C3)cccc2n1
3 = Cc1ccc2c(N3CCN(CCc4cccc5c4ccc(=O)n5C)[C@H](C)C3)cc(F)cc2n1
4 = Cc1ccc2c(N3CCN(CCc4c(C)ccc5c4ccc(=O)n5C)CC3)cccc2n1
5 = Cc1ccc2c(N3CCN(CCc4c(C)ccc5c4CCC(=O)N5)CC3)cccc2n1
Falling order of Ki, please. Form entry: ranked labels (order as requested).
5, 4, 2, 1, 3

1 = Cc1ccc2c(N3CCN(CCc4c(F)ccc5c4ccc(=O)n5C)CC3)cccc2n1
2 = Cc1ccc2c(N3CCN(CCc4c(C)ccc5c4ccc(=O)n5C)[C@@H](C)C3)cc(F)cc2n1
3 = Cc1ccc2c(N3CCN(CCc4cccc5c4ccc(=O)n5C)[C@@H](C)C3)cc(F)cc2n1
4 = Cc1ccc2c(N3CCN(CCc4cccc5c4ccc(=O)n5C)[C@@H](C)C3)cccc2n1
Sort the compounds on Ki; start with the lowest figure. List the labels in the requested order.
3, 2, 4, 1

a = Cc1ccc2c(N3CCN(CCc4c(C)ccc5c4ccc(=O)n5C)[C@@H](C)C3)cccc2n1
b = Cc1ccc2c(N3CCN(CCc4cccc5c4CCC(=O)N5C)CC3)cccc2n1
For this pair, a and b , which shows a numerically higher Ki? Bench note: the answer is the label of the chosen record.
b
(b: 12.6 nM, a: 0.501 nM)

====

# Test Method Notes: Ratio of drug level in brain to blood in rat at 0.5 mg/kg, iv and 1 mg/kg, po
# Type: ADME, organism-based
# Reported Conditions: brain / whole blood
Quantity Measured: Kp

Would you please look over these solved cases?
Chemical Structure	Kp
Cc1ccc2c(N3CCN(CCc4cccc5c4ccc(=O)n5C)C(C)(C)C3)cccc2n1	1.1
Cc1ccc2c(N3CCN(CCc4c(C)ccc5c4ccc(=O)n5C)[C@H](C)C3)cccc2n1	0.4
Cc1ccc2c(N3CCN(CCc4c(C)ccc5c4CCC(=O)N5)CC3)cccc2n1	0.8
Cc1ccc2c(N3CCN(CCc4cccc5c4ccc(=O)n5C)[C@@H](C)C3)cc(F)cc2n1	1.2
Cc1ccc2c(N3CCN(CCc4cccc5c4ccc(=O)n5C)[C@@H](C)C3)cccc2n1	1.3
Cc1ccc2c(N3CCN(CCc4cccc5c4ccc(=O)n5C)CC3)cccc2n1	1.1

I = Cc1ccc2c(N3CCN(CCc4c(C)ccc5c4CCC(=O)N5C)CC3)cccc2n1
II = Cc1ccc2c(N3CCN(CCc4c(C)ccc5c4ccc(=O)n5C)[C@@H](C)C3)cccc2n1
Which record would sort first by descending Kp, I or II ? # reply format: chosen label
II
(II: 1.7, I: 0.4)

a = Cc1ccc2c(N3CCN(CCc4c(C)ccc5c4ccc(=O)n5C)CC3)cccc2n1
b = Cc1ccc2c(C3CCN(CCc4c(C)ccc5c4ccc(=O)n5C)CC3)cccc2n1
Given a and given b , which shows the smaller recorded Kp? // return label of chosen record
a
(a: 0.5, b: 0.8)

====

# Test Method Notes: Oral bioavailability in rat at 1 mg/kg
# Type: ADME, organism-based
# Reported Conditions: in vivo
Quantity Measured: bioavailability (%)

Chemical Structure	Quantity Measured	Reported Result
Cc1ccc2c(N3CCN(CCc4c(C)ccc5c4ccc(=O)n5C)[C@H](C)C3)cccc2n1	bioavailability	31
Cc1ccc2c(C3CCN(CCc4c(C)ccc5c4ccc(=O)n5C)CC3)cccc2n1	bioavailability	82
Cc1ccc2c(N3CCN(CCc4c(C)ccc5c4ccc(=O)n5C)CC3)cc(F)cc2n1	bioavailability	82
Cc1ccc2c(N3CCN(CCc4c(C)ccc5c4ccc(=O)n5C)[C@@H](C)C3)cccc2n1	bioavailability	35
Cc1ccc2c(N3CCN(CCc4cccc5c4ccc(=O)n5C)C(C)(C)C3)cccc2n1	bioavailability	27
Cc1ccc2c(N3CCN(CCc4c(C)ccc5c4CCC(=O)N5)CC3)cccc2n1	bioavailability	73

1 = Cc1ccc2c(N3CCN(CCc4cccc5c4ccc(=O)n5C)[C@@H](C)C3)cc(F)cc2n1
2 = Cc1ccc2c(N3CCN(CCc4cccc5c4ccc(=O)n5C)[C@@H](C)C3)cccc2n1
Looking at 1 and 2 , which one comes out lower in bioavailability terms? Please identify the chosen entry by its label.
2
(2: 12%, 1: 34%)

I = Cc1ccc2c(N3CCN(CCc4cccc5c4ccc(=O)n5C)CC3)cccc2n1
II = Cc1ccc2c(N3CCN(CCc4c(C)ccc5c4CCC(=O)N5C)CC3)cccc2n1
Which record shows the lower bioavailability: the first, I , or the second, II ? Answer by stating the label of the chosen item.
I
(I: 37%, II: 83%)

====

# Target Or Test System: 5-hydroxytryptamine receptor 1B (Homo sapiens, UniProt P28222)
# Sequence (P28222 whole entry): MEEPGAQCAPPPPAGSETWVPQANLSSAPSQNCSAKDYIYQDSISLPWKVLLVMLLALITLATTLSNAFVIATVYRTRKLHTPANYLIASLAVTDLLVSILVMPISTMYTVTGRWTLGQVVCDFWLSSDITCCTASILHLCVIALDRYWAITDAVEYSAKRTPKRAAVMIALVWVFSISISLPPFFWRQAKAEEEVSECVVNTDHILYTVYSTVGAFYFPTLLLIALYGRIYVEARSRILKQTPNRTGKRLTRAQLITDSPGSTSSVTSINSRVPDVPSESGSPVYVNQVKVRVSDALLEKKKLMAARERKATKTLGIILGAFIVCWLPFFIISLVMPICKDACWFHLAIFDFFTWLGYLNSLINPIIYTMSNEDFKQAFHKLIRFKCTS
# Test Method Notes: Antagonist activity at human 5-HT1B receptor expressed in CHO cells assessed as inhibition of GTPgammaS binding by scintillation proximity assay
Each entry below lists one item and its recorded Ki value.
Value expressed in nM; do not type the unit.

Chemical Structure	Quantity Measured	Reported Result
Cc1ccc2c(N3CCN(CCc4cccc5c4CCC(=O)N5C)CC3)cccc2n1	Ki	0.794

Now let's try a different one.
Just so you know, measured Ki for `Cc1ccc2c(N3CCN(CCc4cccc5c4ccc(=O)n5C)C(C)(C)C3)cccc2n1` came out at 0.501
